- System: MDR1 (human)
- procedure summary: Apparent permeability across MDCK cells expressing human MDR1 at 5 uM after 2 hrs by LC-MS analysis
- Assay type: ADME, cell-based, Canis lupus familiaris
- recorded conditions: dog
measured endpoint: Papp at 2 h, 5 µM (×10⁻⁶ cm/s)
# number only, unit ×10⁻⁶ cm/s dropped from output

1) CO[C@@H](Cc1cc(C[C@@H]2CS(=O)(=O)C[C@H](NCc3cccc(C(C)(C)C)c3)[C@H]2O)cc(F)c1N)C(F)(F)F ... 9
2) CC(C)(C)c1cccc(CN[C@H]2CS(=O)(=O)C[C@@H](Cc3ccc4[nH]ccc4c3)[C@@H]2O)c1 (racemic) ... 10
3) Nc1c(F)cc(C[C@@H]2CS(=O)(=O)C[C@H](NCc3cccc(OC(F)(F)F)c3)[C@H]2O)cc1OC(C(F)(F)F)C(F)(F)F ... 12

Exercise: Requested field: Papp at 2 h, 5 µM. Item: `CC(C)Oc1cc(C[C@@H]2CS(=O)(=O)C[C@H](NCc3cccc(C(C)(C)C)c3)[C@H]2O)cc(F)c1N`
Key: 14

* * *

- Organism: Homo sapiens
- procedure summary: Selectivity index, ratio of IC50 for human recombinant CatD to IC50 for human recombinant BACE1
Parameter: Ratio IC50. Scope: all listed entries.

1. CC(C)(C)c1cccc(CN[C@H]2CS(=O)(=O)C[C@@H](Cc3cc(F)c(N)c(OCC(F)F)c3)[C@@H]2O)c1 ... > 100

Exercise: Requested field: Ratio IC50. Item: `CCc1cc(C[C@@H]2CS(=O)(=O)C[C@H](NCc3cccc(C(C)(C)C)c3)[C@H]2O)cc(F)c1NC(C)=O`
Key: > 100

Exercise: Requested field: Ratio IC50. Item: `CCCOc1cc(C[C@@H]2CS(=O)(=O)C[C@H](NCc3cccc(C(C)(C)C)c3)[C@H]2O)ccc1N`
Key: > 100
